Numbers sourced from the RNAGym collection of RNA variant scans (doi:10.7554/elife.90254).

B1: OR4K15 (parent)
chain: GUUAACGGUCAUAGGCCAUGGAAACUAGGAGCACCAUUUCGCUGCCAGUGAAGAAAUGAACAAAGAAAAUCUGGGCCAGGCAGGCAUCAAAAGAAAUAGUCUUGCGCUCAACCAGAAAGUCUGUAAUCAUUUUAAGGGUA

Variants of: B1
Assay: self-cleavage, relative activity (ratio to wild type); higher = more cleavage; in vitro, sequencing; the parent is a self-cleaving ribozyme
Outcome label depends on self-cleavage relative to 0.8: at/above gives class 1, below gives class 0.

### Prompt Reported self-cleavage at or above 0.8? A62G C109U
### Response class 0

### Prompt Reported self-cleavage at or above 0.8? A55U A62G
### Response class 0

### Prompt Reported self-cleavage at or above 0.8? U39C G48A
### Response class 1

### Prompt Reported self-cleavage at or above 0.8? U39A A69U
### Response class 1

### Prompt Reported self-cleavage at or above 0.8? U70C A126G
### Response class 1

### Prompt Reported self-cleavage at or above 0.8? A47G A135G
### Response class 1

### Prompt Reported self-cleavage at or above 0.8? C17A U108C
### Response class 0

### Prompt Reported self-cleavage at or above 0.8? C16G A66G
### Response class 1

### Prompt Reported self-cleavage at or above 0.8? A82G U103C
### Response class 1

### Prompt Reported self-cleavage at or above 0.8? A47G U108C
### Response class 0

### Prompt Reported self-cleavage at or above 0.8? U57C G106A
### Response class 0

### Prompt Reported self-cleavage at or above 0.8? A47U A60G
### Response class 0

### Prompt Reported self-cleavage at or above 0.8? A59U A66G
### Response class 1

### Prompt Reported self-cleavage at or above 0.8? A69U U103C
### Response class 0

### Prompt Reported self-cleavage at or above 0.8? U2A A60C
### Response class 1

### Prompt Reported self-cleavage at or above 0.8? A22G A116U
### Response class 0

### Prompt Reported self-cleavage at or above 0.8? A52G U108G
### Response class 0

### Prompt Reported self-cleavage at or above 0.8? A56C A59G
### Response class 1

### Prompt Reported self-cleavage at or above 0.8? G7A U131G
### Response class 1

### Prompt Reported self-cleavage at or above 0.8? A56C A116U
### Response class 0

### Prompt Reported self-cleavage at or above 0.8? G28A A86U
### Response class 1

### Prompt Reported self-cleavage at or above 0.8? "C34U"
### Response class 1

### Prompt Reported self-cleavage at or above 0.8? A64G U103A
### Response class 0

### Prompt Reported self-cleavage at or above 0.8? A4G U87C
### Response class 1

### Prompt Reported self-cleavage at or above 0.8? U38A A140U
### Response class 1

### Prompt Reported self-cleavage at or above 0.8? A117G U127A
### Response class 1

### Prompt Reported self-cleavage at or above 0.8? A56G G74U
### Response class 0

### Prompt Reported self-cleavage at or above 0.8? G29A U124A
### Response class 0

### Prompt Reported self-cleavage at or above 0.8? U102A A135G
### Response class 1

### Prompt Reported self-cleavage at or above 0.8? C113A U120C
### Response class 0

### Prompt Reported self-cleavage at or above 0.8? A68G C85U
### Response class 1

### Prompt Reported self-cleavage at or above 0.8? A92G A125U
### Response class 1

### Prompt Reported self-cleavage at or above 0.8? U39C A114U
### Response class 0

### Prompt Reported self-cleavage at or above 0.8? A129G U131C
### Response class 1
